Molecular target: Tubulin beta chain (Bos taurus)
Conditions: at 25 µM
Description: Percentage by which the binding of [3H]colchicine (2.5 uM) to tubulin from calf brain is reduced by 25 uM concentration of compound
MEASURED_PROPERTY: Tubulin binding (%)

Consider the following illustrative entries.
COc1cc2c(c(OC(C)=O)c1OC)-c1cccc(=O)cc1[C@@H](NC(C)=O)CC2 = 0
COc1c2c(cc3c1-c1cccc(=O)cc1[C@@H](NC(C)=O)CC3)OCO2 = 0

P. COc1cc2c(c(O)c1OC)-c1cccc(=O)cc1[C@@H](NC(C)=O)CC2
Q. COc1cc2c(c(OC)c1O)-c1cccc(=O)cc1[C@@H](NC(C)=O)CC2
Qu. // which entry has the larger Tubulin binding value, P or Q ? // respond with label for picked entry
Ans. Q

Ref: ChEMBL document CHEMBL1123724
